Where these numbers come from: patent US9115092B2

testSystem: PI3Kα (wild-type), P110/P85α (Homo sapiens, UniProt P42336)
Sequence (P42336 whole entry): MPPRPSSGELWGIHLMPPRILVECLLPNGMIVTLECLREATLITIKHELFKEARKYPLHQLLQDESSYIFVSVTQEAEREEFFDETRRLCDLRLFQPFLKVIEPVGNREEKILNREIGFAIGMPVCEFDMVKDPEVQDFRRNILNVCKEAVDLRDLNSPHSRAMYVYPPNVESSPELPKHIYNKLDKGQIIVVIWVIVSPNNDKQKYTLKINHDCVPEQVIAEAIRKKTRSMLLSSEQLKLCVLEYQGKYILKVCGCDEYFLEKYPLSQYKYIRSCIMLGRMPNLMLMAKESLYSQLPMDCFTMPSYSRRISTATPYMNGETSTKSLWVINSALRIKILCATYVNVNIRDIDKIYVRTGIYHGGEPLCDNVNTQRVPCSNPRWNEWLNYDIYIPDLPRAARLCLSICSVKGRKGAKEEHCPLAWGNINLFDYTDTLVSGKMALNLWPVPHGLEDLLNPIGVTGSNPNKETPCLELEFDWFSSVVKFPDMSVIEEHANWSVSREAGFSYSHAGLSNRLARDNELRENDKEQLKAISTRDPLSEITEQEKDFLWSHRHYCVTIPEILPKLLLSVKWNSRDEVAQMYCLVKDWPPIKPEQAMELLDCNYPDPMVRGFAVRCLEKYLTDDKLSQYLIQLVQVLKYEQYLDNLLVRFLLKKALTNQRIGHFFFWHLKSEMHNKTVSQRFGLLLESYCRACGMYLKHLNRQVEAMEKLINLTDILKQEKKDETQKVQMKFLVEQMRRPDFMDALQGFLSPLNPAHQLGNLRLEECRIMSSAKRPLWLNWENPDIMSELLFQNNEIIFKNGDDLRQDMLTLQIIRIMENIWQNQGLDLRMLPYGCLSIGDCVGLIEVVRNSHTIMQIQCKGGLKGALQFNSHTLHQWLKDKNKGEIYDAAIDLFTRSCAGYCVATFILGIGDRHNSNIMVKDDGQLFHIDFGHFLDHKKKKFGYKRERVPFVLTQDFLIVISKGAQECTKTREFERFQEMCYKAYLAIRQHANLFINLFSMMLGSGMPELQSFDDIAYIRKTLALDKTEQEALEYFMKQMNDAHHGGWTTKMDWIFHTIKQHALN
Sequence (P27986 whole entry partner): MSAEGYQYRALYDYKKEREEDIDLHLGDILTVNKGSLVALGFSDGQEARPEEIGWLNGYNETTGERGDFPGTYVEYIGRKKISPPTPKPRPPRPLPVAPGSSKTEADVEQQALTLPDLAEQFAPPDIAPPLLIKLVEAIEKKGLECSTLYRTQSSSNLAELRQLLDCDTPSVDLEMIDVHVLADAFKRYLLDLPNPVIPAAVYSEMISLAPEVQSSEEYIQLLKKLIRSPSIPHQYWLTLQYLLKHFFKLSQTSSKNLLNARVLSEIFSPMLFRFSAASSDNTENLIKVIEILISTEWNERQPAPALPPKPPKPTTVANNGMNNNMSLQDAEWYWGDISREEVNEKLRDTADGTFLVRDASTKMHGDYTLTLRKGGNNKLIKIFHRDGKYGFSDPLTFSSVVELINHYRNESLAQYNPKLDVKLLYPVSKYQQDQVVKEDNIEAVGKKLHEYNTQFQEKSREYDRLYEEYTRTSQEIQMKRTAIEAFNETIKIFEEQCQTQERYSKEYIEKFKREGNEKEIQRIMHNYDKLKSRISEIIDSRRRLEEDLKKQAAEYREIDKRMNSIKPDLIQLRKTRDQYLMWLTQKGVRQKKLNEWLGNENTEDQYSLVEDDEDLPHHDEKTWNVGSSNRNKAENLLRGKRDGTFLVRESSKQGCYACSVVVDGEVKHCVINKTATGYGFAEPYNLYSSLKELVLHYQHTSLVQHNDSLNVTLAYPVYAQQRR
experimentDescription: PI3 Kinase TR-FRET assay, PI3Kα (wild-type)
Experimental: The ability of compounds of the invention to inhibit PI3K activity was determined in a homogeneous TR-FRET assay using a PI3K assay kit (Millipore, USA; cat #33-016) according to manufacturer's instructions. […] The PIP3 product is detected by displacement of biotin-PIP3 from an energy transfer complex consisting of Europium labeled anti-GST monoclonal antibody, a GST-tagged PH domain, biotinylated PIP3 and Streptavidin-APC. […]
valueType: IC50

The cases that follow already have their IC50 on record.
[[record]]
compound = "CN(C)C1CCN(C(=O)c2ccc(NC(=O)Nc3ccc(-c4nc(N5CCOCC5)c5ncc(-c6cncnc6)cc5n4)cc3)cc2)C1 (stereo in doubt)"
valuetype = "IC50"
obsvalue = "< 50 nM"

[[record]]
compound = "CN(C)C(=O)c1ccc(NC(=O)Nc2ccc(-c3nc(N4CCOCC4)c4cc(F)c(-c5cccnc5)cc4n3)cn2)cc1"
valuetype = "IC50"
obsvalue = "< 50 nM"

[[record]]
compound = "Cc1ccc(-c2cc3nc(-c4ccc(NC(=O)Nc5ccc(C(=O)N(C)C)cc5)cc4)nc(N4CCOCC4)c3cc2F)o1"
valuetype = "IC50"
obsvalue = "50 to 200 nM"

[[record]]
compound = "CN(C)C(=O)c1ccc(NC(=O)Nc2ccc(-c3nc(N4CCOCC4)c4ccc(-c5ccoc5)cc4n3)cc2)cc1"
valuetype = "IC50"
obsvalue = "50 to 200 nM"

[[record]]
compound = "CN(C)CCNC(=O)c1ccc2c(N3CCOCC3)nc(-c3ccc(NC(=O)Nc4ccc(C(=O)N(C)C)cc4)cc3)nc2c1"
valuetype = "IC50"
obsvalue = "50 to 200 nM"

[[record]]
compound = "CN(C)C(=O)c1ccc(NC(=O)Nc2ccc(-c3nc(N4CCOCC4)c4ccc(-c5cnc(N(C)C)nc5)cc4n3)c(F)c2)cc1"
valuetype = "IC50"
obsvalue = "< 50 nM"

[[record]]
compound = "CN(C)C(=O)c1ccc(NC(=O)Nc2ccc(-c3nc(N4CCOCC4)c4ccc(-c5ccnnc5)cc4n3)cc2F)cc1"
valuetype = "IC50"
obsvalue = "50 to 200 nM"

[[record]]
compound = "Cc1ccc(-c2ccc3c(N4CCOCC4)nc(-c4ccc(NC(=O)Nc5ccc(C(=O)N(C)C)cc5F)cc4)nc3c2)o1"
valuetype = "IC50"
obsvalue = "201 to 10000 nM"


Assign IC50 to the following record: `CN(C)C(=O)c1ccc(NC(=O)Nc2ccc(-c3nc(N4CCOCC4)c4ccc(-c5cnc6ccccc6c5)cc4n3)cc2)cc1`
< 50 nM

Assign IC50 to the following record: `Cc1ccc(-c2ccc3c(N4CCOCC4)nc(-c4ccc(NC(=O)Nc5ccc(C(=O)N(C)C)nc5)c(F)c4)nc3c2)o1`
50 to 200 nM

Assign IC50 to the following record: `CN(C)C(=O)c1ccc(NC(=O)Nc2ccc(-c3nc(N4CCOCC4)c4ccc(-c5cccc(S(C)(=O)=O)c5)cc4n3)cc2F)cc1`
< 50 nM

Assign IC50 to the following record: `CN(C)C(=O)c1ccc(NC(=O)Nc2ccc(-c3nc(N4CCOCC4)c4ccc(-c5cccc(CO)c5)cc4n3)cc2)cc1`
< 50 nM

Assign IC50 to the following record: `CN(C)C(=O)c1ccc(NC(=O)Nc2ccc(-c3nc(N4CCOCC4)c4cc(F)c(-c5cccnc5F)cc4n3)cc2)cc1`
< 50 nM

Assign IC50 to the following record: `CN(C)C(=O)c1ccc(NC(=O)Nc2ccc(-c3nc(N4CCOCC4)c4ncc(-c5cccnc5F)cc4n3)cc2F)cc1`
< 50 nM

Assign IC50 to the following record: CC1CN(c2nc(-c3ccc(NC(=O)Nc4ccc(C(=O)N(C)C)cc4)cc3)nc3cc(-c4cnn(C)c4)cnc23)CCO1 (centres unmarked)
< 50 nM

----------
Heads up, these compounds all have IC50 values measured for mTOR kinase (Homo sapiens, UniProt P42345).

The cases that follow already have their IC50 on record.
[[record]]
chemicalsmiles = "CN1CCN(C(=O)c2ccc(NC(=O)Nc3ccc(-c4nc(N5CCOCC5)c5ccc(-c6ccco6)cc5n4)cc3)cc2)CC1"
obsvalue = "50 to 200 nM"

[[record]]
chemicalsmiles = "Cc1ccc(-c2ccc3c(N4CCOCC4)nc(-c4ccc(NC(=O)Nc5ccc(C(=O)N(C)C)cc5)c(F)c4)nc3c2)o1"
obsvalue = "50 to 200 nM"


# evaluate next
Give measured IC50 for `Cc1noc(C)c1-c1ccc2c(N3CCOCC3)nc(-c3ccc(NC(=O)Nc4ccc(C(=O)N(C)C)cc4)c(F)c3)nc2c1` (mTOR kinase (Homo sapiens, UniProt P42345)).
50 to 200 nM

----------
Below, each of the compounds is paired with its reported IC50 value.
testSystem: PI3Kα (wild-type), P110/P85α (Homo sapiens)
experimentDescription: PI3 Kinase TR-FRET assay, PI3Kα (wild-type)

The cases that follow already have their IC50 on record.
[[record]]
compound = "CN(C)C(=O)c1ccc(NC(=O)Nc2ccc(-c3nc(N4CCOCC4)c4ccc(-c5ccsc5)cc4n3)cc2)cc1"
obsvalue = "< 0.05 µM"

[[record]]
compound = "Cc1noc(C)c1-c1ccc2c(N3CCOCC3)nc(-c3ccc(NC(=O)Nc4ccc(C(=O)N5CCC(N(C)C)C5)cc4)c(F)c3)nc2c1 (stereo in doubt)"
obsvalue = "0.05 to 0.2 µM"

[[record]]
compound = "Cc1ccncc1-c1ccc2c(N3CCOCC3)nc(-c3ccc(NC(=O)Nc4ccc(C(=O)N(C)C)cc4)cc3)nc2c1"
obsvalue = "< 0.05 µM"


Give measured IC50 for `CN(C)C(=O)c1ccc(NC(=O)Nc2ccc(-c3nc(N4CCOCC4)c4ccc(-c5cncnc5)cc4n3)c(F)c2)cc1` (PI3Kα (wild-type), P110/P85α (Homo sapiens)).
< 0.05 µM

Give measured IC50 for `CN(C)C(=O)c1ccc(NC(=O)Nc2ccc(-c3nc(N4CCOCC4)c4cccc(-c5cccc(O)c5)c4n3)cc2)cc1` (PI3Kα (wild-type), P110/P85α (Homo sapiens)).
0.05 to 0.2 µM

Give measured IC50 for `CC(=O)Nc1ccc(NC(=O)Nc2ccc(-c3nc(N4CCOCC4)c4ncc(-c5cccnc5F)cc4n3)cc2)cc1` (PI3Kα (wild-type), P110/P85α (Homo sapiens)).
< 0.05 µM

Give measured IC50 for `CN(C)C(=O)c1ccc(NC(=O)Nc2ccc(-c3nc(N4CCOCC4)c4ccc(-c5cccc(F)c5)cc4n3)cc2)cc1` (PI3Kα (wild-type), P110/P85α (Homo sapiens)).
0.05 to 0.2 µM

Give measured IC50 for NC1CCN(C(=O)c2ccc(NC(=O)Nc3ccc(-c4nc(N5CCOCC5)c5ccc(-c6ccco6)cc5n4)cc3)cc2)C1 (stereo in doubt) (PI3Kα (wild-type), P110/P85α (Homo sapiens)).
< 0.05 µM

Give measured IC50 for `CC(=O)Nc1ccc(NC(=O)Nc2ccc(-c3nc(N4CCOCC4)c4ncc(-c5cnn(C)c5)cc4n3)cc2)cc1` (PI3Kα (wild-type), P110/P85α (Homo sapiens)).
< 0.05 µM

Give measured IC50 for `CN(C)C(=O)c1ccc(NC(=O)Nc2ccc(-c3nc(N4CCOCC4)c4ccc(-c5cncnc5)cc4n3)cc2)c(F)c1` (PI3Kα (wild-type), P110/P85α (Homo sapiens)).
< 0.05 µM

Give measured IC50 for `CN(C)C(=O)c1ccc(NC(=O)Nc2ccc(-c3nc(N4CCOCC4)c4ccc(C(=O)N5CCC(N(C)C)CC5)cc4n3)cc2)cc1` (PI3Kα (wild-type), P110/P85α (Homo sapiens)).
0.201 to 10 µM

Give measured IC50 for `CN(C)C(=O)c1ccc(NC(=O)Nc2ccc(-c3nc(N4CCOCC4)c4ccc(-c5ccco5)cc4n3)cc2)cc1F` (PI3Kα (wild-type), P110/P85α (Homo sapiens)).
0.05 to 0.2 µM

Give measured IC50 for `CN(C)CCN(C)C(=O)c1ccc(NC(=O)Nc2ccc(-c3nc(N4CCOCC4)c4ccc(-c5cncnc5)cc4n3)cc2)cc1` (PI3Kα (wild-type), P110/P85α (Homo sapiens)).
< 0.05 µM

----------
Below, each of the molecules is paired with its reported pIC50 value.
Test system: PC3 cells
experimentDescription: XTT assay for cell viability, PC3 cells
Type: cell-based, human
conditionDetails: Homo sapiens, PC-3, cell viability
pIC50: −log10 of the molar value.

The cases that follow already have their pIC50 on record.
[[record]]
chemicalsmiles = "CN(C)C(=O)c1ccc(NC(=O)Nc2ccc(-c3nc(N4CCOCC4)c4ccc(-c5cccnc5F)cc4n3)c(F)c2)cc1"
valuetype = "pIC50"
obsvalue = "5.00 to 6.70"

[[record]]
chemicalsmiles = "CN(C)C(=O)c1ccc(NC(=O)Nc2ccc(-c3nc(N4CCOCC4)c4ccc(-c5cccnc5F)cc4n3)cc2)cn1"
valuetype = "pIC50"
obsvalue = "> 7.00"

[[record]]
chemicalsmiles = "CN(C)C(=O)c1ccc(NC(=O)Nc2ccc(-c3nc(N4CCOCC4)c4ccc(-c5cccnc5)cc4n3)c(F)c2)cc1"
valuetype = "pIC50"
obsvalue = "5.00 to 6.70"

[[record]]
chemicalsmiles = "CN(C)C(=O)c1ccc(NC(=O)Nc2ccc(-c3nc(N4CCOCC4)c4ccc(-c5cncc(S(C)(=O)=O)c5)cc4n3)cc2)cc1"
valuetype = "pIC50"
obsvalue = "> 7.00"

[[record]]
chemicalsmiles = "COc1ncc(-c2ccc3c(N4CCOCC4)nc(-c4ccc(NC(=O)Nc5ccc(C(=O)N(C)C)c(F)c5)cc4)nc3c2)cn1"
valuetype = "pIC50"
obsvalue = "5.00 to 6.70"


# evaluate next
Assign pIC50 to the following record: `CC(=O)Nc1cccc(-c2ccc3c(N4CCOCC4)nc(-c4ccc(NC(=O)Nc5ccc(C(=O)N(C)C)cc5)cc4)nc3c2)c1`
> 7.00
